Source: patent US9428456B2

targetDesc: CXCR7 (Homo sapiens (Human), UniProt P25106)
Sequence (P25106 whole entry): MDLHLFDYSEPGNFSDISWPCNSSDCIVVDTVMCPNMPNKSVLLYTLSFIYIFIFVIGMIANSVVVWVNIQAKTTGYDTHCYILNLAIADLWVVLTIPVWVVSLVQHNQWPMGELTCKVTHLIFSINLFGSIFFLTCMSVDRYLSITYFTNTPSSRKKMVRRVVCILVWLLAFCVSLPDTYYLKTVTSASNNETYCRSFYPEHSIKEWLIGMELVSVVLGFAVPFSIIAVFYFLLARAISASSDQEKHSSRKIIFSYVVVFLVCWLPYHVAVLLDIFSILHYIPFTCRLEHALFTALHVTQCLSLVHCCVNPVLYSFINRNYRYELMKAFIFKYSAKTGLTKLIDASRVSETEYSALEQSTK
Sequence (P32121 whole entry partner): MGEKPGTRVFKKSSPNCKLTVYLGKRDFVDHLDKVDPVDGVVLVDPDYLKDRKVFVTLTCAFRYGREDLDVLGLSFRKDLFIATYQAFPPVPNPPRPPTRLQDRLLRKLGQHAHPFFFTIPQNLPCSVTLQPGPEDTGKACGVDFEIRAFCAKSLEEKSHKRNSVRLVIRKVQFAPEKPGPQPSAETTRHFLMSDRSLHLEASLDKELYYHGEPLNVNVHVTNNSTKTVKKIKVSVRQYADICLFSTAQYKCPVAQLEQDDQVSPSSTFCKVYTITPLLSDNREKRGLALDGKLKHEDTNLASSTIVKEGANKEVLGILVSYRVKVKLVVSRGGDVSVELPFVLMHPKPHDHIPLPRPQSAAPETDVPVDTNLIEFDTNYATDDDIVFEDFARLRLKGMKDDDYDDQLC
test: PathHunter CHO-K1 CXCR7 b-arrestin assay (agonistic activity)
conditionDescription: PathHunter CHO-K1 CXCR7 b-arrestin cell line
A collection of compounds and their measured EC50
Field format: number, assumed nM, no unit text.

Example cases with answers are listed next.
# compound, scaleUnit, EC50
data = [
    ("COc1ccc(C(=O)Nc2cccc(CN3CCC(C(=O)NC4CCCCC4)CC3)c2)cn1 [Example 1.092]", "nM", 3),
    ("O=C(Nc1cccc(CN2CCC(C(=O)NC3CCCCC3)CC2)c1)c1cccc(C(F)(F)F)c1 [Example 1.104]", "nM", 5),
    ("Cc1cc(C(=O)Nc2cccc(C(C)N3CCC(C(=O)NC4CCCCC4)CC3)c2)ncn1 (racemic) [Example 1.198]", "nM", 92),
]

Below: the item to evaluate.
Look up EC50: CCC(C)(C)NC(=O)C1CCN(Cc2cccc(NC(=O)c3ccc(Cl)c[n+]3[O-])c2)CC1 [Example 4.025]
2

====

targetDesc: CXCR7 (Homo sapiens (Human), UniProt P25106)
test: PathHunter CHO-K1 CXCR7 b-arrestin assay (agonistic activity)
Format: cell-based
conditionDescription: PathHunter CHO-K1 CXCR7 b-arrestin cell line
valueType: EC50 (nM)
Field format: number, assumed nM, no unit text.

# molecule, obsValue
measured = [
    ("O=C(Nc1cccc(CN2CCC(C(=O)NC3CCCCC3)CC2)c1)c1cccnc1Cl", 44),
]

Look up EC50: `CCC(C)(C)NC(=O)C1CCN(Cc2cccc(NC(=O)c3ccc(Cl)cn3)c2)CC1`
0.8

Now the molecule `O=C(Nc1ccc(Cl)c(CN2CCC(C(=O)NC3CCCC3)CC2)c1)c1ccccc1`
0.4

Now the molecule `CC(C)CN(C)C(=O)C1CCN(Cc2cccc(NC(=O)c3cncc(Cl)c3)c2)CC1`
6

Now the molecule `COc1ccc(CN2CCC(C(=O)NC(C)(C)C)CC2)cc1NC(=O)c1cncc(C)c1`
7

Now the molecule Cc1cncc(C(=O)Nc2cccc(CN3CCC(C(=O)NC4CCCCC4)CC3)c2)c1 [Example 1.060]
4

Now the molecule `O=C(Nc1cccc(CN2CCC(C(=O)NC3CCCCC3)CC2)c1)c1ccc(C(F)(F)F)cc1`
5

Now the molecule `CCc1cc(CN2CCC(C(=O)NC(C)(C)C)CC2)cc(NC(=O)c2ccc(F)cc2)c1`
62

====

targetDesc: CXCR7 (Homo sapiens (Human))
test: PathHunter CHO-K1 CXCR7 b-arrestin assay (agonistic activity)
conditionDescription: PathHunter CHO-K1 CXCR7 b-arrestin cell line
valueType: pEC50
Scale note: pEC50 = -log10(concentration in M).

Example cases with answers are listed next.
# compound, valueType, obsValue
data = [
    ("O=C(Nc1cccc(CN2CCC(C(=O)NC3CCCCC3)CC2)c1)c1cccnc1C(F)(F)F [Example 1.059]", "pEC50", 6.41),
    ("O=C(Nc1cccc(CN2CCC(C(=O)NC3CCCCC3)CC2)c1)c1ccc(Cl)nc1Cl [Example 1.091]", "pEC50", 7.92),
    ("CN(C)c1cccc(C(=O)Nc2cccc(CN3CCC(C(=O)NC4CCCCC4)CC3)c2)c1 [Example 1.144]", "pEC50", 7.14),
]

Quick check: pEC50 on CXCR7 (Homo sapiens (Human)), item O=C(Nc1cccc(CN2CCC(C(=O)NC3CC3)CC2)c1)c1cncc(F)c1 [Example 1.204] ?
7.33

====

targetDesc: CXCR7 (Homo sapiens (Human))
test: PathHunter CHO-K1 CXCR7 b-arrestin assay (agonistic activity)
conditionDescription: PathHunter CHO-K1 CXCR7 b-arrestin cell line
pEC50: −log10 of the molar value.
Quick rule: pEC50 of at least 8 means T, below that means F.

Look over these answered cases.
# molecule, targetDesc, classAssignment
records = [
    ("CC(C)(C)NC(=O)C1CCN(Cc2cccc(NC(=O)C3CCc4ccccc43)c2)CC1 (racemic)", "CXCR7 (Homo sapiens (Human))", "T"),
    ("O=C(Nc1cccc(CN2CCC(C(=O)NC3CCCCC3)CC2)c1)c1nccc2ccccc12", "CXCR7 (Homo sapiens (Human))", "F"),
    ("Cc1cncc(C(=O)Nc2cccc(CN3CCCC(C(=O)NC(C)C)CC3)c2)c1 (racemic)", "CXCR7 (Homo sapiens (Human))", "F"),
    ("CC(c1cccc(NC(=O)c2ccccc2)c1)N1CCC(C(=O)NC2CCCCC2)CC1 (stereo not shown)", "CXCR7 (Homo sapiens (Human))", "F"),
    ("CC(C)(C)NC(=O)C1CCN(Cc2cccc(NC(=O)C3Cc4ccccc43)c2)CC1 (racemic)", "CXCR7 (Homo sapiens (Human))", "T"),
]

Is pEC50 at least 8? Consider `O=C(Nc1cccc(CN2CCC(C(=O)NC3CCCCC3)CC2)c1)C1CC1`
F

Now the molecule `O=C(Nc1cccc(CN2CCC(C(=O)NC3CCCCC3)CC2)c1)c1c(F)cccc1F`
F

Now the molecule `COc1c(CN2CCC(C(=O)NC(C)(C)C)CC2)cccc1NC(=O)c1cccc(C(F)(F)F)n1`
F

Now the molecule `CC(C)(C)NC(=O)C1CCN(Cc2cccc(NC(=O)Cc3c(F)cccc3Cl)c2)CC1`
T

Now the molecule `CC(C)(C)NC(=O)C1CCN(Cc2cccc(NC(=O)Cc3c(F)ccc(Cl)c3Cl)c2)CC1`
T

Now the molecule `Cc1cc(C(=O)Nc2cccc(CN3CCC(C(=O)NC4CCCCC4)CC3)c2)ccc1F`
T

Now the molecule CC(c1cccc(NC(=O)c2cnccn2)c1)N1CCC(C(=O)NC2CCCCC2)CC1 (racemic)
F

Now the molecule CC(c1cccc(NC(=O)c2ccc(C#N)cc2)c1)N1CCC(C(=O)NC2CCCCC2)CC1 (racemic)
F

Now the molecule `CC(C)(C)NC(=O)C1CCN(Cc2cccc(NC(=O)c3ccc(N)cn3)c2)CC1`
T

Now the molecule CC(C)CNC(=O)C1CCN(Cc2cccc(NC(=O)c3cccc(C(F)(F)F)n3)c2)C1 (racemic)
F

Now the molecule `O=C(Cc1ccc2ccccc2c1)Nc1cccc(CN2CCC(C(=O)NC3CCCCC3)CC2)c1`
F

Now the molecule `Cc1cc(Cl)ccc1C(=O)Nc1cccc(CN2CCC(C(=O)NC3CCCCC3)CC2)c1`
T

Now the molecule `CC(C)(C)NC(=O)C1CCN(Cc2cccc(NC(=O)c3ccc(F)cn3)c2)CC1`
T

Now the molecule `Cc1cc(F)cc(C(=O)Nc2cccc(CN3CCC(C(=O)NC4CCCCC4)CC3)c2)c1`
T

Now the molecule `Cc1cc(CN2CCC(C(=O)NC(C)(C)C)CC2)cc(NC(=O)c2cncc(C)c2)c1`
F

Now the molecule `Cc1c(CN2CCC(C(=O)NC(C)(C)C)CC2)cccc1NC(=O)c1cccc(C(F)(F)F)n1`
F

====

targetDesc: CXCR7 (Homo sapiens (Human))
test: PathHunter CHO-K1 CXCR7 b-arrestin assay (agonistic activity)
conditionDescription: PathHunter CHO-K1 CXCR7 b-arrestin cell line
Procedure: The CXCl12 receptor and CXCR7 agonistic activities of the compounds of formula (I) are determined in accordance with the following experimental method. The assay is using the PathHunter™ CHO-K1 CXCR7 b-arrestin cell line from DiscoverX. The system is based on the Enzyme Fragment Complementation Technology. Two complementing fragments of the b-galactosidase enzyme are expressed within stably transfected cells. […]
For each record, check the reported EC50: if it is below 9 nM write True, else write False.

Look over these answered cases.
# molecule, targetDesc, classAssignment
records = [
    ("Cc1cncc(C(=O)Nc2ccc(Cl)c(CN3CCC(C(=O)NC4CCCC4)CC3)c2)c1 [Example 1.226]", "CXCR7 (Homo sapiens (Human))", "True"),
    ("O=C(Nc1cccc(CN2CCC(C(=O)NC3CCCC3)CC2)c1)c1cccc(C(F)(F)F)n1 [Example 1.208]", "CXCR7 (Homo sapiens (Human))", "True"),
    ("O=C(Nc1cccc(CN2CCC(C(=O)NC3CCCCC3)CC2)c1)c1ccc(F)cn1 [Example 1.057]", "CXCR7 (Homo sapiens (Human))", "True"),
    ("Cc1cc(C(=O)Nc2cccc(CN3CCC(C(=O)NC4CCCCC4)CC3)c2)no1 [Example 1.005]", "CXCR7 (Homo sapiens (Human))", "False"),
    ("O=C(Nc1cccc(CN2CCC(C(=O)NC3CCCCC3)CC2)c1)c1ccccc1OC(F)(F)F [Example 1.095]", "CXCR7 (Homo sapiens (Human))", "True"),
]

Hi there! Is EC50 for O=C(Nc1cccc(CN2CCC(C(=O)NC3CCCCC3)CC2)c1)c1cc(F)c(Cl)nc1Cl [Example 1.089] below 9 nM, do you know?
False

Now the molecule CC(C)(C)NC(=O)C1CCN(Cc2cccc(NC(=O)c3cc(C(F)(F)F)ccn3)c2)CC1 [Example 1.242]
True

Now the molecule CC(C)(C)NC(=O)C1CCN(Cc2cccc(NC(=O)c3ccnnc3)c2)CC1 [Example 1.323]
False

Now the molecule O=C(Nc1cccc(CN2CCC(C(=O)NC3CCCC3)CC2)c1)c1cnc2ccccc2c1 [Example 1.211]
True

Now the molecule O=C(Nc1cccc(CN2CCC(C(=O)NC3CCCCC3)CC2)c1)c1cccc[n+]1[O-] [Example 1.080]
False
